molecular target: T1, hRSV FTM-NN (membrane anchorless form of the Long fusion protein, 70 kDa) (human respiratory syncytial virus, …, UniProt P12568 26-524); assay: SPR (Biacore), FTM-NN amine-coupled on CM5 chip, 1:1 Langmuir fit
T1 construct: also called FTM-NN (Long); hRSV FTM-protein
Measured attribute: Kd (nM)
Please respond with the number in nM and leave the unit unwritten.

Consider Nanobody NC41 (VHH) VHH: EVQLVESGGGLVQAGGSLSISCAASGGSLSNYVLGWFRQAPGKEREFVAAINWRGDITIGPPNVEGRFTISRDNAKNTGYLQMNSLAPDDTAVYYCGAGTPLNPGAYIYDWSYDYWGRGTQVTVSS . Its measured Kd is 8.1

Consider Nanobody 13E12 (VHH, also called PMP13E12; PRSV13E12) VHH: EVQLVESGGGLVQAGGSLRLSCAASGRTFSRYIMGWFRQAPGKEREFVGAISRSGDITSFADFVKGRFTMSRDNAKNTLYLQMNSLEPEDTAVYSCAANSDTYYIYSDIVVPERYDYWGQGTQVTVSS . Its measured Kd is 1.5

Consider Nanobody 13A1 (VHH, also called PMP13A1; PRSV13A1) VHH: EVQLVESGGGLVQPGGSLRLSCAASGLTLDYYALGWFRQAPGKEREGVSCISSADHSTTYADSVKGRFTISWDNAKNTVYLQMNSLKPEDTAVYYCAADPALGCYSGNYYPRYDYWGQGTQVTVSS . Its measured Kd is 0.61
